Hello, the source for this data is patent US9340577B2, in case you need it.

- system.name: HLA-A3.2 (A*0301) (Homo sapiens)
- assay.summary: biochemical
- Format: binding
No end group written: not given here.
Measured log10 IC50 values are reported for all entries that follow.
Lab note - IC50 converted to log10 from values in nM.

Examples from the recorded data:
LTKMFCQLAK [Peptide 1556.51]
2.97
KLFLKGVPKK [Peptide 1587.40]
1.20
RLECAIYYK [Peptide 1589.01]
1.74
LTARNVLVK [Peptide 9012.0213]
1.36
DSNACAFLK [Peptide 1587.33]
3.15
KLGIVTITY [Peptide 88.0428]
1.81

# query: log10 IC50 of entry HLYGYSWYK [Peptide 76.0153] 1.08

Entry SVCMGGMNR [Peptide 1556.60] please 2.20

Entry GTVFGILIKR [Peptide 9012.0243] please 3.41

Entry SQISYWQLIR [Peptide 88.0220] please 3.42

Entry MTDAGTWDK [Peptide 88.0400] please 3.20

Entry TLDVYMIMVK [Peptide 9012.0258] please 3.19

Entry RLCDHIDYWK [Peptide 1589.11] please 2.66

Entry SVICFVNSK [Peptide 1587.15] please 2.04

---

Measured IC50 values are reported for all entries that follow.
- system.name: DRB1*1101 (Homo sapiens, UniProt P01903+P01911, A100R/A169T/A87E/I96F/K41T/L162R/M171V/P40S/Q125H/Q178H/Q39Y/Q99D/R42S/S66Y/T262R/V115G/W38E)
- Sequence (P01903 26-254 limits assumed, other chains not shown): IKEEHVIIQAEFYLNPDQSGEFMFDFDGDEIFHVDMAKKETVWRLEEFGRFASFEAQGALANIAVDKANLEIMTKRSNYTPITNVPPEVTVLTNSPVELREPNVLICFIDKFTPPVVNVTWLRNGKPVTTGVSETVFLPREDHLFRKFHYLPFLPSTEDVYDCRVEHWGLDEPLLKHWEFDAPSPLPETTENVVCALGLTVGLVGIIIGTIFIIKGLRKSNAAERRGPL
- assay.summary: biochemical
- run.conditions: Binding affinity DRB1 *1101
No end group written: not given here.
The answer is to be given in µM; state only the numeric part.

NCILLYGAANTGKSL [Peptide 89.0017]
5.78
LKGDANILKCLRYRL [Peptide 1601.26]
5.53
MNYVVWDSIYYITET [Peptide 90.0214]
1.62
RVCLLFYSKVRKYRY [Peptide 1543.54]
4.26

Please look at the following sequence next.
# query: IC50 of entry ETHMVIEPPKLRSAT [Peptide 89.0103] 3.26

---

- System: HLA-A24
- Format: binding, human
Measured binding to HLA-A24 (column 6; no allele head shown for these rows) values are reported for all entries that follow.
The response must contain the number and no unit.

Examples from the recorded data:
VLGTLEEV
0
KMVELVHFLL
0.0008
VADLVGFLLL
0.0003
FLIIVLVMIAM
0.0011
KVADLVGFLL
0.0070
CILESLFRA
0
SAYGEPRKLL
0.0008
VIPHAMSSCGV
0
LVFGIELMEV
0
LVLGTLEEV
0.0003

# query: binding to HLA-A24 (column 6; no allele head shown for these rows) of entry `KAGLLIIVL` 0

Entry `VAELVHFLLL` please 0.0018

Entry `ALREEEEGV` please 0

---

- system.name: DRB1*1302 (Homo sapiens, UniProt P01903+P01911, A100E/A169T/K41T/L162R/M171V/P40S/Q125H/Q178H/Q39Y/Q99D/R42S/S66N/T262R/V115G/W38E/Y61H)
- Sequence (P01903 26-254 limits assumed, other chains not shown): as above
- assay.summary: biochemical
- Assay type: binding
No end group written: not given here.
Measured IC50 values are reported for all entries that follow.

Examples from the recorded data:
DIAYKYAQLADVNSN [Peptide 89.0108]
> 20 µM
QQTVCREGVKRRLIL [Peptide 90.0129]
> 20 µM

Please look at the following sequence next.
# query: IC50 of entry LDHYENDSKDINSQI [Peptide 1601.29] > 20 µM

---

- system.name: A*6801 (Homo sapiens, UniProt P04439, A269V/D185E/E176V/E277Q/E87N/F33Y/G231S/I121M/I166T/I218V/L180W/L300P/L318F/N151K/P208A/P217A/Q86R/R169H/T345S)
- assay.summary: biochemical
- Type: binding
No end group written: not given here.
Measured pIC50 values are reported for all entries that follow.
Here pIC50 is given on a logarithmic scale as minus log10 of the concentration in mol/L.

ALFTAQEAK [Peptide 88.0323]
6.22
QVVPAYNISK [Peptide 1589.06]
8.12
SFFSRTWCR [Peptide 1587.42]
7.55

Please look at the following sequence next.
# query: pIC50 of entry TTYAEPPK [Peptide 1556.11] 6.49

---

- system.name: DRB1*0405 (Homo sapiens, UniProt P01903+P01911, A100R/A169T/D86S/F76Y/I96L/K127E/L162R/M171V/N62H/P40V/Q125Y/R42H/S133A/S149N/S66Y/V115G/V209L/W38E)
- assay.summary: biochemical
- Assay type: binding
No end group written: not given here.
Measured IC50 values are reported for all entries that follow.
The answer is to be given in µM; state only the numeric part.

Examples from the recorded data:
PMCMMIEPPKLRSTA [Peptide 90.0034]
2.11
QHSFNDDIFDLSEMI [Peptide 90.0152]
0.384
VDFIDTQLSICEQAE [Peptide 89.0078]
0.284
CTLVAGEVDYVGLYY [Peptide 90.0252]
9.02
LSQRLNVCQDKILEH [Peptide 1601.21]
4.63
YKTLFVDVTSTYHWT [Peptide 90.0241]
0.549
KTLIKPATLYAHIQC [Peptide 89.0083]
0.841
ETCMLIEPPKLRSSV [Peptide 89.0084]
0.906

# query: IC50 of entry AKLMSNLLSIPETCM [Peptide 89.0066] 0.034

Entry SADDLRAFQQLFLNT [Peptide 1543.07] please 0.411

---

- system.name: DRB1*0802 (Homo sapiens, UniProt P01903+P01911, A100R/A103L/A169T/F76Y/H45Y/I96F/K41T/L162R/M171V/P40S/Q125H/Q178H/Q39Y/Q99D/R218S/R42G/S66Y/V115G/W38E)
- assay.summary: biochemical
- Assay type: binding
No end group written: not given here.
Measured pIC50 values are reported for all entries that follow.
Here pIC50 is given on a logarithmic scale as minus log10 of the concentration in mol/L.

CIHSTATDLRTLQQM [Peptide 1543.45]
6.31
ILLYGAANTGKSLFG [Peptide 89.0018]
5.76

Please look at the following sequence next.
# query: pIC50 of entry LKAICIEKQSRAAKR [Peptide 90.0032] 6.56

---

- system.name: DRB1*1201 (Homo sapiens, UniProt P01903+P01911, A100R/A169T/D57E/D86V/F55L/H45Y/K41T/L162R/M171V/P40S/Q125H/Q178H/Q39Y/Q99D/R42G/S66L/T262R/V114A/V67L/W38E/Y59H/Y61H/Y89S)
- assay.summary: biochemical
- Assay type: binding
No end group written: not given here.
Threshold check on IC50: strictly below 2 µM is Satisfied; on or above 2 µM is Not satisfied.

Worked examples follow.
RREVYDFAFRDLCIV [Peptide 1543.25]
Not satisfied
EYVLDLYPEPTDLYC [Peptide 1543.12]
Not satisfied
NCILLYGAANTGKSL [Peptide 89.0017]
Not satisfied
AFQVIELQMALETLN [Peptide 90.0024]
Satisfied
AQEVHNDAQVLHVLK [Peptide 90.0047]
Not satisfied

Consider the additional sequence presented here.
Problem: For the sequence YDPLYCESVHNFTLP [Peptide 68.0041] , is IC50 under 2 µM? Not satisfied

---

- system.name: HLA-A1 (A*0101) (Homo sapiens, UniProt P04439, A114D/A174V/A182V/D101N/D185E/E176A/E190D/L180R/Q94H/R68K/S129P/T187R/V100A/V91M/W191G)
- assay.summary: biochemical
- Format: binding
No end group written: not given here.
assay.metric: log10(IC50) (log10 of the value in nM)
Lab note - IC50 converted to log10 from values in nM.

Examples from the recorded data:
YSDIRELRHY [Peptide 86.0055]
1.00
LTSALEIPY [Peptide 1549.40]
1.76
KLNWASQIY [Peptide 1595.09]
4.05
YSRIRELRY [Peptide 78.0253]
2.49

Please look at the following sequence next.
# query: log10(IC50) of entry TIEKLTNTGLY [Peptide 1589.45] 1.89

---

- system.name: A31 (A*3101) (Homo sapiens, UniProt P04439, A270S/D185E/E176V/E277Q/F33T/G231S/G80R/H175R/I121M/I218V/I322F/K168Q/L300P/L318F/M331R/P217A/Q94H/R138Q/T323A/T345S/T97I/V358M)
- assay.summary: biochemical
- Format: binding
No end group written: not given here.
Measured log10 IC50 values are reported for all entries that follow.
Lab note - IC50 converted to log10 from values in nM.

Examples from the recorded data:
KLVEDRWNK [Peptide 9017.0107]
1.79
GLYYIHGNEK [Peptide 1589.40]
2.15
AFRDLCIVYR [Peptide 78.0079]
1.11
KIKPPLPSVR [Peptide 9017.0234]
0.91
VLCTYSPALNK [Peptide 1556.36]
3.68
VLYGPANTGK [Peptide 88.0180]
3.29
KVCLRLLSK [Peptide 78.0302]
2.72
VIDSPAGQA [Peptide 78.0316]
2.61

# query: log10 IC50 of entry RQMNMSQWIK [Peptide 1587.54] 1.61

Entry GTRQARKNR [Peptide 9017.0071] please 1.38

Entry KTLLQPYCLY [Peptide 88.0153] please 3.63

Entry VFADLRIVYR [Peptide 78.0073] please 1.49

Entry GVEFISFLR [Peptide 1587.55] please 2.09

Entry ILLLLIRFK [Peptide 88.0386] please 1.68

Entry SVRKLTEDR [Peptide 9017.0106] please 1.68

Entry RQQFLKTVK [Peptide 1589.33] please 1.65

Entry HIGPGRAFY [Peptide 1595.03] please 3.15
